target: Substance-P receptor (Homo sapiens) (UniProt P25103); assay: Displacement of [125I]-BH-SP from human NK1R expressed in CHO cell membranes at 10 uM by scintillation counting
Sequence (P25103 whole entry): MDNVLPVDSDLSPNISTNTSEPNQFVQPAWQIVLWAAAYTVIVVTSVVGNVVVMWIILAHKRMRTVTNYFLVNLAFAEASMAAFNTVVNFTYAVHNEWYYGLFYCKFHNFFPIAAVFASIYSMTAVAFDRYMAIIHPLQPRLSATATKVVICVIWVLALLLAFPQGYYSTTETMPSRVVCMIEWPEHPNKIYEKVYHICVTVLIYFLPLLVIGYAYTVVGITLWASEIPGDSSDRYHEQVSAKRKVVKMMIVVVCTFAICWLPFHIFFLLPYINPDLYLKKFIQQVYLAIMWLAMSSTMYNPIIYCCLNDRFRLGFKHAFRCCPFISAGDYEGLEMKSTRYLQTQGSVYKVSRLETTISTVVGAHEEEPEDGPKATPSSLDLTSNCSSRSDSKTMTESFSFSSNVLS
Where a SMILES comes first, the peptide text is derived from it. [ ]: non-standard residue; d: D form. NMeF = CN[C@@H](Cc1ccccc1)C(=O)O
reportedMetric: inhibition
In your response, put the unit directly after the numeric value.

molecule: CSCC[C@H](NC(=O)[C@H](CC(C)C)NC(=O)CNC(=O)[C@H](Cc1ccccc1)N(C)C(=O)[C@H](Cc1ccccc1)NC(=O)[C@H](Cc1ccccc1)NC(=O)[C@@H](N)CC(=O)O)C(N)=O (H-DFF[NMeF]GLM-NH2)
testedSystem: Substance-P receptor (Homo sapiens) (UniProt P25103)
assayResult: 15%

Query molecule follows.
Q. Using Substance-P receptor (Homo sapiens) (UniProt P25103) as the test system, report measured inhibition of CSCC[C@H](NC(=O)[C@H](CC(C)C)NC(=O)CNC(=O)[C@H](Cc1ccccc1)N(C)C(=O)[C@H](Cc1ccccc1)NC(=O)[C@H](Cc1ccccc1)NC(=O)[C@H](CC(=O)O)NC(=O)[C@H](Cc1cnc[nH]1)NC(=O)[C@@H](N)CCSC)C(N)=O (H-MHDFF[NMeF]GLM-NH2) .
A. 22%

Ref: ChEMBL document CHEMBL3352625
